These entries and their values trace back to the supplement of paper PMC10127200.

The reader will find reported Euclidean distance values listed item by item below.
Tested on: HEPG2
Test: Euclidean distance of Cell Painting phenotypic profile (signed KS, 77 features) to DMSO centroid (dimensionless distance); higher = stronger phenotypic change vs DMSO (phenoactivity)
Conditions: 48 h; 5 or 10 uM (library dependent)
Structures can show the parent of a compound that is named as a salt.
Reply briefly: the number, and no unit.

Compound	Experimental Readout	Measured
O=C(O[C@H]1C[C@H]2CC[C@@H](C1)[N+]21CCCC1)C(O)(c1ccccc1)c1ccccc1 [Trospium chloride]	Euclidean distance	0.66
CN1CCC(C(=O)c2cccc(NC(=O)c3c(F)cc(F)cc3F)n2)CC1 [Lasmiditan succinate]	Euclidean distance	0.782
C[C@]12CCC(=O)C(O)=C1CC[C@@H]1[C@@H]2CC[C@]2(C)C(=O)CC[C@@H]12	Euclidean distance	0.763

*Q* // fetch Euclidean distance for `O=C1C=C2C=C[C@@H]3C[C@@]2(O1)[C@H]1CCCCN31` ; system: HEPG2
*A* 1.08

*Q* // fetch Euclidean distance for `C[C@@H]1CC[C@@]2(OC1)O[C@H]1C[C@H]3[C@@H]4CC=C5C[C@@H](O[C@@H]6O[C@H](CO)[C@@H](O[C@@H]7O[C@@H](C)[C@H](O)[C@@H](O)[C@H]7O)[C@H](O)[C@H]6O[C@@H]6O[C@@H](C)[C@H](O)[C@@H](O)[C@H]6O)CC[C@]5(C)[C@H]4CC[C@]3(C)[C@H]1[C@@H]2C` ; system: HEPG2
*A* 1.15

*Q* // fetch Euclidean distance for Oc1cccc2cccnc12 [8-Hydroxyquinoline] ; system: HEPG2
*A* 1.99

*Q* // fetch Euclidean distance for C[C@H]1O[C@H](O[C@H]2[C@H](O)[C@@H](O)[C@@H](O)[C@H](O)[C@@H]2O)[C@@H](N)C[C@@H]1NC(=N)C(=O)O [Kasugamycin hydrochloride] ; system: HEPG2
*A* 0.528

###

Tested on: HEPG2
Test: Euclidean distance of Cell Painting phenotypic profile (signed KS, 77 features) to DMSO centroid (dimensionless distance); higher = stronger phenotypic change vs DMSO (phenoactivity)
Details: 48 h; 5 or 10 uM (library dependent)
Counter-ions that a name gives are not always drawn.
The reader will find reported Euclidean distance values listed item by item below.
Reply briefly: the number, and no unit.

Consider the following illustrative entries.
> print(dat)
                                   molecule  measured
1  C[C@]12CC[C@@H]3c4ccc(OC(=O)N(CCCl)CCCl)cc4CC[C@H]3[C@@H]1CC[C@@H]2OP(=O)(O)O [Estramustine phosphate sodium]     0.766
2  CN1[C@H]2C[C@H](OC(=O)[C@H](CO)c3ccccc3)C[C@@H]1[C@@H](O)C2 [Anisodamine Hydrobromide]     0.513
3  Cn1cc(C2=C(c3cn(C4CCN(Cc5ccccn5)CC4)c4ccccc34)C(=O)NC2=O)c2ccccc21     0.683
4  [O-][n+]1ccccc1[S-].[O-][n+]1ccccc1[S-].[Zn+2]      5.34
5  CC(=O)OCC1=C(C(=O)O)N2C(=O)[C@@H](N)[C@H]2SC1      0.55

*Q* Tell me its Euclidean distance given `Cc1cc2c(C(C)C)c(O)c(O)c(C=O)c2c(O)c1-c1c(C)cc2c(C(C)C)c(O)c(O)c(C=O)c2c1O` as the entry.
*A* 0.654

*Q* Tell me its Euclidean distance given `C/C(=C\c1csc(C)n1)[C@@H]1C[C@@H]2O[C@]2(C)CCC[C@H](C)[C@H](O)[C@@H](C)C(=O)C(C)(C)[C@@H](O)CC(=O)O1` as the entry.
*A* 1.98
